Test system: common lambsquarters
measurementProtocol: Upland foliar application test (Test 3)
Type: in vivo
experimentalSetup: 30 g ai/a, foliar spray at 2-3 leaves, 30th day
The entries below come with measured Herbicidal effects Common lambsquarters values attached.

Field: example entries. Status: answers known.
Which Herbicidal effects Common lambsquarters value is on record for C=CC(C)ON=Cc1ccccc1Oc1nc(OC)cc(OC)n1 (centres unmarked) [Compound No. 2] ?
4 (6-10 (Severe damages))

Can you share its Herbicidal effects Common lambsquarters? I mean this compound: COc1cc(OC)nc(Oc2ccccc2C=NOCC=Cc2ccc(C)cc2)n1 [compound 36]
4 (6-10 (Severe damages))

Form field: reported Herbicidal effects Common lambsquarters of COc1cccc(C=CCON=Cc2ccccc2Oc2nc(OC)cc(OC)n2)c1 [compound 38]
4 (6-10 (Severe damages))

For COc1cc(OC)nc(Oc2ccccc2C=NOCc2ccccc2)n1 [Compound No. 15] , what is its reported Herbicidal effects Common lambsquarters?
5 (0-5 (Death))

What value of Herbicidal effects Common lambsquarters has been reported for the following compound? COc1cc(OC)nc(Oc2ccccc2C=NOC(C)c2ccccc2)n1 (centres unmarked) [compound 21]
3 (11-40 (Medium damages))

Fill blank: measured Herbicidal effects Common lambsquarters of the compound COc1cc(OC)nc(Oc2ccccc2C=NOCc2ccccc2Cl)n1 [compound 16] is ____.
3 (11-40 (Medium damages))

More entries:
What measured Herbicidal effects Common lambsquarters goes with COc1cc(OC)nc(Oc2ccccc2C=NOC(C)C)n1 [compound 6] ?
4 (6-10 (Severe damages))

Param item = COc1cc(OC)nc(Oc2ccccc2C=NOC2CCCCC2)n1 [Compound No. 3] ; retrieve measured Herbicidal effects Common lambsquarters.
4 (6-10 (Severe damages))

* * *

Tested on: rice
measurementProtocol: Treatment of soil under submerged condition, pre-emergence (Test 4), injury
Assay type: in vivo
experimentalSetup: 30 g ai/a granule, 30 days later
observationType: Injury Rice

Solved cases (4 shown):
Hello, I am looking for reported Injury Rice with rice for COc1cc(OC)nc(Oc2ccccc2C=NOCC=Cc2cccc(Cl)c2Cl)n1 [compound 41] . Could you help?
0 (91-100 (No damages))

# value lookup — system rice, readout Injury Rice, item COc1cc(OC)nc(Oc2ccccc2C=NOCc2ccc(C)cc2)n1 [compound 19]
0 (91-100 (No damages))

Short answer please: Injury Rice, rice, entry COc1cc(OC)nc(Oc2ccccc2C=NOCc2cccc3ccccc23)n1 [compound 22]
0 (91-100 (No damages))

# get_value(readout= Injury Rice, system= rice) for COc1cc(OC)nc(Oc2ccccc2C=NOCC=Cc2ccc(C)cc2)n1 [compound 36]
0 (91-100 (No damages))

New cases:
Could you share what Injury Rice was measured for COc1cc(OC)nc(Oc2ccccc2C=NOCc2cccc(C)c2)n1 [compound 20] , tested on rice?
0 (91-100 (No damages))

Form: Entry = COc1cc(OC)nc(Oc2ccccc2C=NOCC=Cc2ccccc2)n1 [Compound No. 9] | System = rice | Injury Rice = ____
1 (71-90 (Slight damages))

Kindly state the measured Injury Rice obtained for C=CC(C)ON=Cc1ccccc1Oc1nc(OC)cc(OC)n1 (centres unmarked) [Compound No. 2] with rice.
1 (71-90 (Slight damages))

So what Injury Rice did C#CCON=Cc1ccccc1Oc1nc(OC)cc(OC)n1 [Compound No. 13] get with rice?
1 (71-90 (Slight damages))

Record C=C(Cl)CON=Cc1ccccc1Oc1nc(OC)cc(OC)n1 [Compound No. 14] : what is its Injury Rice with rice?
0 (91-100 (No damages))

Param readout= Injury Rice; system= rice; entry= COc1cc(OC)nc(Oc2ccccc2C=NOCC=CCl)n1 [compound 11] ; returns value.
1 (71-90 (Slight damages))

* * *

Test system: ALS (acetolactate syntase)
measurementProtocol: ALS enzyme assay (Test 1)
Format: biochemical, pea
experimentalSetup: 1,000 ppm (0.5 mg/0.5 ml)
observationType: Inhibitory activity (%) Pea
Return type: number; implicit unit %.

Which measured Inhibitory activity (%) Pea value corresponds to COc1cc(OC)nc(Oc2ccccc2C=NOCC=Cc2c(F)cccc2F)n1 [compound 33] ?
0

* * *

Test system: green foxtail
measurementProtocol: Upland foliar application test (Test 3)
Type: in vivo
experimentalSetup: 30 g ai/a, foliar spray at 2-3 leaves, 30th day
observationType: Herbicidal effects Green foxtail

Examples with their reported Herbicidal effects Green foxtail follow.
Which measured Herbicidal effects Green foxtail belongs to COc1cc(OC)nc(Oc2ccccc2C=NOCc2cccc(C)c2)n1 , tested on green foxtail?
5 (0-5 (Death))

Provide the documented Herbicidal effects Green foxtail with green foxtail as the system for COc1cc(OC)nc(Oc2ccccc2C=NOCC=Cc2ccccc2Cl)n1
5 (0-5 (Death))

Give Herbicidal effects Green foxtail (green foxtail) of the following compound: COc1cc(OC)nc(Oc2ccccc2C=NOCC=Cc2c(F)cccc2F)n1
5 (0-5 (Death))

I'm curious: which Herbicidal effects Green foxtail was measured for COc1cc(OC)nc(Oc2ccccc2C=O)n1 [B, reference compound] tested on green foxtail?
4 (6-10 (Severe damages))

// lookup Herbicidal effects Green foxtail | system=green foxtail | key= COc1cc(OC)nc(Oc2ccccc2C=NOCC=Cc2ccccc2C(F)(F)F)n1
5 (0-5 (Death))

Item: C#CCON=Cc1ccccc1Oc1nc(OC)cc(OC)n1 Test system: green foxtail Read-out: Herbicidal effects Green foxtail Value: ?
5 (0-5 (Death))

Quick check: Herbicidal effects Green foxtail on green foxtail, item COc1cc(OC)nc(Oc2ccccc2C=NOCc2ccccc2)n1 ?
5 (0-5 (Death))

Which measured Herbicidal effects Green foxtail belongs to COc1cccc(C=CCON=Cc2ccccc2Oc2nc(OC)cc(OC)n2)c1 , tested on green foxtail?
5 (0-5 (Death))

Give green foxtail Herbicidal effects Green foxtail for COc1cc(OC)nc(Oc2ccccc2C=NOCC=Cc2ccccc2C)n1
5 (0-5 (Death))

Look up Herbicidal effects Green foxtail with green foxtail for this compound: COc1cc(OC)nc(Oc2ccccc2C=NOCc2ccc(Cl)c(Cl)c2)n1
5 (0-5 (Death))

More entries:
API: value(readout= Herbicidal effects Green foxtail, system= green foxtail, query= COc1cc(OC)nc(Oc2ccccc2C=NOCC=Cc2ccc(F)cc2)n1 )
4 (6-10 (Severe damages))

* * *

System: common lambsquarters
measurementProtocol: Upland foliar application test (Test 3)
Type: in vivo
experimentalSetup: 30 g ai/a, foliar spray at 2-3 leaves, 30th day
Here the recorded Herbicidal effects Common lambsquarters is given for each entry.

Param item = COc1cc(OC)nc(Oc2ccccc2C=NOCc2ccc(Cl)cc2Cl)n1 ; retrieve measured Herbicidal effects Common lambsquarters.
4 (6-10 (Severe damages))

Continuing:
Which Herbicidal effects Common lambsquarters is reported for this molecule? COc1cc(OC)nc(Oc2ccccc2C=NOCc2ccc(Cl)c(Cl)c2)n1
3 (11-40 (Medium damages))

Return reported Herbicidal effects Common lambsquarters; argument: COc1cc(OC)nc(Oc2ccccc2C=NOCC=C(C)Cl)n1
3 (11-40 (Medium damages))

* * *

Tested on: rice
measurementProtocol: Treatment of soil under submerged condition, pre-emergence (Test 4), injury
Type: in vivo
experimentalSetup: 30 g ai/a granule, 30 days later
observationType: Injury Rice

Check out these entries, answers already filled in.
For the compound shown here, COc1cc(OC)nc(Oc2ccccc2C=NO)n1 , give the reported Injury Rice.
1 (71-90 (Slight damages))

Returns the measured Injury Rice for the input compound. Input: COc1cc(OC)nc(Oc2ccccc2C=NOCC=Cc2cccc(C)c2)n1
0 (91-100 (No damages))

If you can, please state the reported Injury Rice value of C=C(C)CON=Cc1ccccc1Oc1nc(OC)cc(OC)n1 .
0 (91-100 (No damages))

Next:
Suppose we examine the compound CC#CCON=Cc1ccccc1Oc1nc(OC)cc(OC)n1 ; what Injury Rice value has been reported?
1 (71-90 (Slight damages))

* * *

# Inhibitory activity (%) Pea per record follows
Tested on: ALS (acetolactate syntase)
measurementProtocol: ALS enzyme assay (Test 1)
Assay type: biochemical, pea
experimentalSetup: 1,000 ppm (0.5 mg/0.5 ml)
Answer format: numeric, % implied, no suffix.

Examples with their reported Inhibitory activity (%) Pea follow.
Can you look up the measured Inhibitory activity (%) Pea of COc1cc(OC)nc(Oc2ccccc2C=NOCc2ccc(C)cc2)n1 for me?
0

What measured Inhibitory activity (%) Pea goes with C=C(Cl)CON=Cc1ccccc1Oc1nc(OC)cc(OC)n1 ?
0

Quick check: Inhibitory activity (%) Pea of COc1cc(OC)nc(Oc2ccccc2C=O)n1 [B, reference compound] ?
92

Requested read-out: Inhibitory activity (%) Pea. Entry: COc1cc(OC)nc(Oc2ccccc2C=NOCC=Cc2ccccc2)n1
11

What value of Inhibitory activity (%) Pea has been reported for the following compound? COc1cc(OC)nc(Oc2ccccc2C=NOCC=Cc2ccccc2Cl)n1
12

New cases:
Recorded Inhibitory activity (%) Pea of COc1cc(OC)nc(Oc2ccccc2C=NOCC=C(C)C)n1 , please.
0

# get_value(readout='Inhibitory activity (%) Pea', item= CCc1ccc(C=CCON=Cc2ccccc2Oc2nc(OC)cc(OC)n2)cc1 )
0

What value of Inhibitory activity (%) Pea has been reported for the following compound? COc1cc(OC)nc(Oc2ccccc2C=NOCC=C(C)Cl)n1
0

# input compound: COc1cccc(C=CCON=Cc2ccccc2Oc2nc(OC)cc(OC)n2)c1 ; wanted: its Inhibitory activity (%) Pea
0
